# Tested on: Escherichia coli
# protocol summary: Binding affinity to Escherichia coli sliding clamp assessed as gibbs free energy change by ITC analysis
Where a SMILES comes first, the peptide text is derived from it. [ ]: non-standard residue; d: D form. Oic = O=C(O)[C@@H]1C[C@@H]2CCCC[C@@H]2N1; NMeR = CN[C@@H](CCCNC(=N)N)C(=O)O; Cha = N[C@@H](CC1CCCCC1)C(=O)O
Measured deltaG by item

| compound | subject of test | unit string | deltaG |
| --- | --- | --- | --- |
| CC(=O)N(C)[C@@H](CCCNC(=N)N)C(=O)N[C@@H](CCC(N)=O)C(=O)N[C@@H](CC1CCCCC1)C(=O)N[C@@H](CC(=O)O)C(=O)N[C@@H](CC(C)C)C(=O)N[C@@H](Cc1ccccc1)C(=O)O (Ac-[NMeR]Q[Cha]DLF-OH) | Escherichia coli | kcal/mol | -7.7 |
| CC(=O)N[C@@H](CCC(N)=O)C(=O)N[C@@H](CC1CCCCC1)C(=O)N[C@@H](CC(=O)O)C(=O)N[C@@H](CC(C)C)C(=O)N1[C@H](C(=O)N[C@@H](Cc2ccccc2)C(=O)O)C[C@@H]2CCCC[C@@H]21 (Ac-Q[Cha]DL[Oic]F-OH) | Escherichia coli | kcal/mol | -9.5 |

* * *

# System: Escherichia coli
# protocol summary: Binding affinity to Escherichia coli sliding clamp assessed as gibbs free energy change by ITC analysis
*1 amine or outer side, *2 acyl side, *3 side chain or, on linkers, in order; H or OH if unused. Where a SMILES comes first, the peptide text is derived from it. [ ]: non-standard residue; d: D form. The star is where a group is joined. N(3-imidazol-1-ylpropyl)Gly = O=C(O)CNCCCn1ccnc1; Phe(3,4-F2) = N[C@@H](Cc1ccc(F)c(F)c1)C(=O)O; Cinnamoyl(4-F) = O=C(/C=C/c1ccc(F)cc1)*; X2 = O=C(CN(Cc1ccccn1)[*:1])[*:2]; NMeF = CN[C@@H](Cc1ccccc1)C(=O)O; Cha = N[C@@H](CC1CCCCC1)C(=O)O; NMeD = CN[C@@H](CC(=O)O)C(=O)O
Measured deltaG by item

| compound | unit string | deltaG |
| --- | --- | --- |
| CC(C)C[C@H](NC(=O)[C@H](CC(=O)O)NC(=O)[C@H](CC1CCCCC1)NC(=O)[C@H](CCC(N)=O)NC(=O)CNCCCn1ccnc1)C(=O)N[C@@H](Cc1ccccc1)C(=O)O (H-[N(3-imidazol-1-ylpropyl)Gly]Q[Cha]DLF-OH) | kcal/mol | -8.9 |
| CC(C)C[C@H](NC(=O)[C@H](CC(=O)O)NC(=O)[C@H](CC1CCCCC1)NC(=O)[C@H](CCC(N)=O)NC(=O)CNCc1ccccn1)C(=O)N[C@@H](Cc1ccccc1)C(=O)O (H-[X2]Q[Cha]DLF-OH) | kcal/mol | -9.2 |
| CC(C)C[C@H](NC(=O)[C@H](CC(=O)O)N(C)C(=O)[C@H](CC1CCCCC1)NC(=O)[C@H](CCC(N)=O)NC(=O)/C=C/c1ccc(F)cc1)C(=O)N[C@@H](Cc1ccc(F)c(F)c1)C(=O)O ({Cinnamoyl(4-F)}-Q[Cha][NMeD]L[Phe(3,4-F2)]-OH) | kcal/mol | -9.6 |
| CC(=O)N[C@@H](CCC(N)=O)C(=O)N[C@@H](CC1CCCCC1)C(=O)N[C@@H](CC(=O)O)C(=O)N[C@@H](CC(C)C)C(=O)N(C)[C@@H](Cc1ccccc1)C(=O)O (Ac-Q[Cha]DL[NMeF]-OH) | kcal/mol | -7.1 |

* * *

Measured deltaG by item
# System: Escherichia coli
# protocol summary: Binding affinity to Escherichia coli sliding clamp assessed as gibbs free energy change by ITC analysis
Where a SMILES comes first, the peptide text is derived from it. [ ]: non-standard residue; d: D form. The star is where a group is joined. Acryloyl(3-(3-pyridyl),E) = O=C(/C=C/c1cccnc1)*; Phe(3,4-Cl2) = N[C@@H](Cc1ccc(Cl)c(Cl)c1)C(=O)O; NMeR = CN[C@@H](CCCNC(=N)N)C(=O)O; Cha = N[C@@H](CC1CCCCC1)C(=O)O; NMeD = CN[C@@H](CC(=O)O)C(=O)O

| compound | unit string | deltaG |
| --- | --- | --- |
| CC(C)C[C@H](NC(=O)[C@@H]1CCCN1C(=O)[C@H](CC(C)C)NC(=O)[C@H](CC(=O)O)N(C)C(=O)[C@H](CC1CCCCC1)NC(=O)[C@H](CCC(N)=O)NC(=O)/C=C/c1cccnc1)C(=O)O ({Acryloyl(3-(3-pyridyl),E)}-Q[Cha][NMeD]LPL-OH) | kcal/mol | -9.2 |
| CC(=O)N(C)[C@@H](CCCNC(=N)N)C(=O)N[C@@H](CCC(N)=O)C(=O)N[C@@H](CC1CCCCC1)C(=O)N(C)[C@@H](CC(=O)O)C(=O)N[C@@H](CC(C)C)C(=O)N[C@@H](Cc1ccc(Cl)c(Cl)c1)C(=O)O (Ac-[NMeR]Q[Cha][NMeD]L[Phe(3,4-Cl2)]-OH) | kcal/mol | -9.6 |

* * *

Measured K by item
# Test system: Escherichia coli
# protocol summary: Binding affinity to Escherichia coli sliding clamp assessed as association rate constant by ITC analysis
Where a SMILES comes first, the peptide text is derived from it. [ ]: non-standard residue; d: D form. The star is where a group is joined. Phe(3,4-Cl2) = N[C@@H](Cc1ccc(Cl)c(Cl)c1)C(=O)O; Oic = O=C(O)[C@@H]1C[C@@H]2CCCC[C@@H]2N1; X3 = CN(C)/C(=N\CC(=O)*)N1CCOCC1; Cha = N[C@@H](CC1CCCCC1)C(=O)O
assay endpoint: K

| molecule | reading |
| --- | --- |
| CC(C)C[C@H](NC(=O)[C@H](CC(=O)O)NC(=O)[C@H](CC1CCCCC1)NC(=O)[C@H](CCC(N)=O)NC(=O)C/N=C(\N(C)C)N1CCOCC1)C(=O)N[C@@H](Cc1ccccc1)C(=O)O (X3-Q[Cha]DLF-OH) | 3.4 10^4/M/s |
| CC(=O)N[C@@H](CCC(N)=O)C(=O)N[C@@H](CC1CCCCC1)C(=O)N[C@@H](CC(=O)O)C(=O)N[C@@H](CC(C)C)C(=O)N1[C@H](C(=O)N[C@@H](Cc2ccc(Cl)c(Cl)c2)C(=O)O)C[C@@H]2CCCC[C@@H]21 (Ac-Q[Cha]DL[Oic][Phe(3,4-Cl2)]-OH) | 6 10^4/M/s |

* * *

# protocol summary: Inhibition of SC-dependent DNA replication in Escherichia coli using pU118 DNA as substrate preincubated for 10 mins followed by substrate addition and measured after 6 mins by PAGE electrophoresis
pIC50: −log10 of the molar value. Where a SMILES comes first, the peptide text is derived from it. [ ]: non-standard residue; d: D form. Phe(3,4-Cl2) = N[C@@H](Cc1ccc(Cl)c(Cl)c1)C(=O)O; Oic = O=C(O)[C@@H]1C[C@@H]2CCCC[C@@H]2N1; Cha = N[C@@H](CC1CCCCC1)C(=O)O
Measured pIC50 by item

| molecule | pIC50 |
| --- | --- |
| CC(=O)N[C@@H](CCC(N)=O)C(=O)N[C@@H](CC1CCCCC1)C(=O)N[C@@H](CC(=O)O)C(=O)N[C@@H](CC(C)C)C(=O)N1[C@H](C(=O)N[C@@H](Cc2ccc(Cl)c(Cl)c2)C(=O)O)C[C@@H]2CCCC[C@@H]21 (Ac-Q[Cha]DL[Oic][Phe(3,4-Cl2)]-OH) | 6.82 |
| CC(=O)N[C@@H](CCC(N)=O)C(=O)N[C@@H](CC1CCCCC1)C(=O)N[C@@H](CC(=O)O)C(=O)N[C@@H](CC(C)C)C(=O)N[C@@H](Cc1ccccc1)C(=O)O (Ac-Q[Cha]DLF-OH) | 5.49 |

* * *

# System: Escherichia coli
# protocol summary: Binding affinity to Escherichia coli sliding clamp assessed as association rate constant by ITC analysis
Where a SMILES comes first, the peptide text is derived from it. [ ]: non-standard residue; d: D form. The star is where a group is joined. Acryloyl(3-(3-pyridyl),E) = O=C(/C=C/c1cccnc1)*; NMeF = CN[C@@H](Cc1ccccc1)C(=O)O; Cha = N[C@@H](CC1CCCCC1)C(=O)O; NMeD = CN[C@@H](CC(=O)O)C(=O)O
assay endpoint: K

| molecule | subject of test | reading |
| --- | --- | --- |
| CC(=O)N[C@@H](CCC(N)=O)C(=O)N[C@@H](CC1CCCCC1)C(=O)N[C@@H](CC(=O)O)C(=O)N[C@@H](CC(C)C)C(=O)N(C)[C@@H](Cc1ccccc1)C(=O)O (Ac-Q[Cha]DL[NMeF]-OH) | Escherichia coli | 1 10^4/M/s |
| CC(C)C[C@H](NC(=O)[C@H](CC(=O)O)N(C)C(=O)[C@H](CC1CCCCC1)NC(=O)[C@H](CCC(N)=O)NC(=O)/C=C/c1cccnc1)C(=O)N1CCC[C@H]1C(=O)N[C@@H](Cc1ccccc1)C(=O)O ({Acryloyl(3-(3-pyridyl),E)}-Q[Cha][NMeD]LPF-OH) | Escherichia coli | 1.4 10^5/M/s |

Data credit: ChEMBL document CHEMBL5053545
